Tested on: A549-ACE2
Test: drug-induced phospholipidosis relative to tamoxifen; higher = more phospholipidosis
Conditions: 0.3 µM; 24 h

>  <COMPOUND>
Cc1ccc(CNc2ncnc3ccc(-c4ccc(CO)o4)cc23)o1 [ML167]

>  <drug-induced phospholipidosis (%)>
2.53

$$$$
>  <COMPOUND>
CC(=O)c1cc([N+](=O)[O-])c(Sc2ccc(F)cc2F)s1

>  <drug-induced phospholipidosis (%)>
3.19

$$$$
>  <COMPOUND>
Cc1nc(Nc2cnn(C3CCNCC3)c2)nc2c1N(C)C(=O)c1cc3ccccc3cc1N2C [HTH-01-015]

>  <drug-induced phospholipidosis (%)>
2.9

$$$$
>  <COMPOUND>
COc1cc(COc2cc(N)c(Cl)cc2C(=O)CCC2CCN(CCNS(C)(=O)=O)CC2)cc(OC)c1

>  <drug-induced phospholipidosis (%)>
7

$$$$
>  <COMPOUND>
CCN1CCN(c2ccc(Nc3cc(N(C)C(=O)Nc4c(Cl)c(OC)cc(OC)c4Cl)ncn3)cc2)CC1 [NVP-BGJ398]

>  <drug-induced phospholipidosis (%)>
7.01

$$$$
